Provide the recorded DC50 for the entries that follow.
- subjectOfTest: KAT2B (Homo sapiens)
- Sequence (Q92831 whole entry): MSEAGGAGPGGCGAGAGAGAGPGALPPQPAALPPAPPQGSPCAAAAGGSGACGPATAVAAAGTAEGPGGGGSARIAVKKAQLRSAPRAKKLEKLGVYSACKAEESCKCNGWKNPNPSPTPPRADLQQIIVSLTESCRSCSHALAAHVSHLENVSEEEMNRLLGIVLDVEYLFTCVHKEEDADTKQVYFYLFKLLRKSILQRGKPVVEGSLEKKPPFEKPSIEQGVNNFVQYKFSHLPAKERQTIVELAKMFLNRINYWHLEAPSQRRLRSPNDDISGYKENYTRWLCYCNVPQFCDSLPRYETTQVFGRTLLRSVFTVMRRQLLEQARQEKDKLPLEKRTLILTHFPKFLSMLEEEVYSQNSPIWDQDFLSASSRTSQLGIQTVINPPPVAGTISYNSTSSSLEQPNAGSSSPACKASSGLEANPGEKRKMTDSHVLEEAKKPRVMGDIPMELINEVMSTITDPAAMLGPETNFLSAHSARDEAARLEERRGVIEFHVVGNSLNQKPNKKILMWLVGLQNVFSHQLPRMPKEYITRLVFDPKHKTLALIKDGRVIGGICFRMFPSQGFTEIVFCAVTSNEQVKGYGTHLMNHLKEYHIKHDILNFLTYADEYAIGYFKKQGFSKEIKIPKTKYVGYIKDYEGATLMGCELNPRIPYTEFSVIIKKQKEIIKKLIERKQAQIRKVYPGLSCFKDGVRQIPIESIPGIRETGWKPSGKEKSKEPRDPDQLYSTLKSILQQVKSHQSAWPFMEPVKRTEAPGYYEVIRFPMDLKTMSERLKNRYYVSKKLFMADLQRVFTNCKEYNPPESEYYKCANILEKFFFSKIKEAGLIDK
- protocolDescription: KAT2B degradation, Western Blot (Jess), NCI-H1048 cells
- Format: cell-based
- Set-up: degrader, Western blot (Jess)
- statedConditions: NCI-H1048 cells, KAT2B, 24 h, Western Blot, vs DMSO; read-out: KAT2B NCI-H1048 DC50

QUERY: For Cc1c(N2CCC3(CCN(C(=O)c4ccc([C@H]5C[C@@H](Nc6cnn(C)c(=O)c6Cl)CN(C)C5)cc4)CC3)CC2)ccc(C2CCC(=O)NC2=O)c1F (some centres unmarked) [Compound 237] , what is its reported DC50?
RESULT: 1 to 30 nM

QUERY: Field entry: CN1C[C@H](Nc2cnn(C)c(=O)c2Br)C[C@H](c2ccc(C(=O)N3CCC4(CC3)CCN(c3ccc5c(c3)C(=O)N(C3CCC(=O)NC3=O)C5=O)CC4)cc2)C1 (some centres unmarked) [Compound 300]
RESULT: < 1 nM

QUERY: Field entry: CN1C[C@H](Nc2cnn(C)c(=O)c2Cl)C[C@H](c2ccc(C(=O)N3CCC4(CC3)CCN(c3ccc5c(c3)C(=O)N(C3CCC(=O)NC3=O)C5=O)CC4)cc2)C1 (some centres unmarked) [Compound 301]
RESULT: < 1 nM

QUERY: Field entry: CN1C[C@H](Nc2cnn(C)c(=O)c2Cl)C[C@H](c2ccc(C(=O)N3CCC4(CC3)CCN(c3cc(C5CCC(=O)NC5=O)ccn3)CC4)cc2)C1 (some centres unmarked) [Compound 234]
RESULT: < 1 nM

QUERY: Field entry: CN1C[C@H](Nc2cnn(C)c(=O)c2Cl)C[C@H](c2ccc(C(=O)N3CCC4(CC3)CCN(c3ccn(C5CCC(=O)NC5=O)c(=O)c3)CC4)cc2)C1 (some centres unmarked) [Compound 262]
RESULT: 1 to 30 nM

QUERY: Field entry: CN1C[C@H](Nc2ccn(C)c(=O)c2Cl)C[C@H](c2ccc(C(=O)N3CCC4(CCC(c5ccc(C6CCC(=O)NC6=O)cc5)CC4)CC3)cc2)C1 (some centres unmarked) [Compound 314]
RESULT: 1 to 30 nM

QUERY: Field entry: CN1C[C@H](Nc2cnn(C)c(=O)c2Cl)C[C@H](c2ccc(CN3CCC4(CC3)CCN(c3ccc(C5CCC(=O)NC5=O)c(F)c3)CC4)cc2)C1 (some centres unmarked) [Compound 340]
RESULT: < 1 nM

QUERY: Field entry: CN1C[C@H](Nc2cnn(C)c(=O)c2Cl)C[C@H](c2ccc(CN3CC(c4ccc5c(c4)C(=O)N(C4CCC(=O)NC4=O)C5=O)C3)cc2)C1 (some centres unmarked) [Compound 199]
RESULT: > 30 nM

QUERY: Field entry: Cc1cc(N2CCN(C3CCN(C(=O)c4ccc([C@H]5C[C@@H](Nc6cnn(C)c(=O)c6Br)CN(C)C5)cc4)CC3)CC2)ccc1C1CCC(=O)NC1=O (some centres unmarked) [Compound 312]
RESULT: > 30 nM

QUERY: Field entry: CN1C[C@H](Nc2cnn(C)c(=O)c2Br)C[C@H](c2ccc(C(=O)N3CCC4(CCC(c5ccc(C6CCC(=O)NC6=O)cc5)CC4)CC3)cc2)C1 (some centres unmarked) [Compound 323]
RESULT: < 1 nM

QUERY: Field entry: CN1C[C@H](Nc2cnn(C)c(=O)c2Br)C[C@H](c2ccc(C(=O)N3CCC4(CC3)CCN(c3ccc5c(C6CCC(=O)NC6=O)cncc5c3)CC4)cc2)C1 (some centres unmarked) [Compound 297]
RESULT: < 1 nM

Entry source: patent US20260306640A1
